molecular target: Sodium-dependent serotonin transporter (Homo sapiens); also: assay procedure not described here
Sequence (P31645 whole entry): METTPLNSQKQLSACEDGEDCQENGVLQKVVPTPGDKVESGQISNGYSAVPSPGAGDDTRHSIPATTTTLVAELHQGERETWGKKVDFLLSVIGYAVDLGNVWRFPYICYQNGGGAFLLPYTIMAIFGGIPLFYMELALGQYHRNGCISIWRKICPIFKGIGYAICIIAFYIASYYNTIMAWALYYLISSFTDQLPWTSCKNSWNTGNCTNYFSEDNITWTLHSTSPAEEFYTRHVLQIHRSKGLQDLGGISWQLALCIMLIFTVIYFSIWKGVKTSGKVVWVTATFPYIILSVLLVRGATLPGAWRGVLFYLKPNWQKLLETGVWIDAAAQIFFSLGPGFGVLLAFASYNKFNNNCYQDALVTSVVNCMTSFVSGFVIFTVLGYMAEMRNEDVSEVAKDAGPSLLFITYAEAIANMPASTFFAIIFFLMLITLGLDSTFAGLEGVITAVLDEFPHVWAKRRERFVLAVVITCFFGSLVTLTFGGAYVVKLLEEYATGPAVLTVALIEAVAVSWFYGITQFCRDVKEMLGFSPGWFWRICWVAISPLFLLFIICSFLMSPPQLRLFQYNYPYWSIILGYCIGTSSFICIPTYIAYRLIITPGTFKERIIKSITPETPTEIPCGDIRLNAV
MEASUREMENT LABEL: AC50

INSERT INTO measurements (compound, measurement_label, result) VALUES
  ('CC(=O)Nc1c(I)c(C(=O)N[C@H]2C(O)O[C@H](CO)[C@@H](O)[C@@H]2O)c(I)c(N(C)C(C)=O)c1I (some centres undefined) [METRIZAMIDE]', 'AC50', '> 10 µM'),
  ('O=C(O)c1cc(O)c2c3nc4ccccc4oc-3cc(=O)c2n1 [PIRENOXINE]', 'AC50', '> 30 µM'),
  ('COc1cc2c(Nc3ccc(Br)cc3F)ncnc2cc1OCC1CCN(C)CC1 [VANDETANIB]', 'AC50', '3.4 µM'),
  ('CC(C)C[C@H](CN)CC(=O)O [PREGABALIN]', 'AC50', '> 30 µM'),
  ('C[C@]1(COc2ccc(N3CCC(Oc4ccc(OC(F)(F)F)cc4)CC3)cc2)Cn2cc([N+](=O)[O-])nc2O1', 'AC50', '> 10 µM'),
  ('CC(=O)c1ccc2c(c1)N(CCCN1CCC(CCO)CC1)c1ccccc1S2 [PIPERACETAZINE]', 'AC50', '1.3 µM'),
  ('CNC(=O)c1cc(Oc2ccc(NC(=O)Nc3ccc(Cl)c(C(F)(F)F)c3)c(F)c2)ccn1 [REGORAFENIB]', 'AC50', '> 30 µM'),
  ('CC(C)OC(=O)C(C(=O)OC(C)C)=C1SC=CS1 [MALOTILATE]', 'AC50', '> 30 µM'),
  ('Nc1nc(F)nc2c1ncn2[C@@H]1O[C@H](COP(=O)(O)O)[C@@H](O)[C@@H]1O [FLUDARABINE PHOSPHATE]', 'AC50', '> 30 µM');
